# MEASURED TARGET: human muscarinic M4 receptor (Homo sapiens)
# Construct: expressed in transfected cells
# Sequence (P08173 whole entry): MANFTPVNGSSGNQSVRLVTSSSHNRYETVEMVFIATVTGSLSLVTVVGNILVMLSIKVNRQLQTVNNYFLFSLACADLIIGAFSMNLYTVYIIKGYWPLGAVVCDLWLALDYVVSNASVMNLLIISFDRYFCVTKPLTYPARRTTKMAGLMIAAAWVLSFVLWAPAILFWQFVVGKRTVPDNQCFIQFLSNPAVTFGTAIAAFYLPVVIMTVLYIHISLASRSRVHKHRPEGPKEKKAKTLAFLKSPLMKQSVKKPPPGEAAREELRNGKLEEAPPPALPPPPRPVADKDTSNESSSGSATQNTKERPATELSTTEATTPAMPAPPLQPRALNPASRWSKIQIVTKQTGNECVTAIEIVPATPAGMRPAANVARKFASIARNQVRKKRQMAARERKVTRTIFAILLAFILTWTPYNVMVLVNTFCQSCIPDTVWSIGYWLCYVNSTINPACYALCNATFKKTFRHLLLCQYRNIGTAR
# EXPERIMENTAL DETAILS: Alphascreen Surefire phospho-ERK1/2 functional assay, M4
# Type: cell-based
# TEST SETTINGS: CHO, read-out: M4 % Emax cf. ACh, CHO cells stably expressing human M4; Emax relative to ACh
ASSAY ENDPOINT: Emax (%)

1. CCOC(=O)N1CCCN(C2CCC3(CC2)C(=O)Nc2cc(OC)ccc23)CC1 (single isomer, unassigned) [4-11 isomer 2] | 55
2. CCOC(=O)N1CCCN(C2CCC(C#N)(c3ccncc3)CC2)CC1 (mixture of isomers) [3-12 mixture of isomers] | 48
3. CCOC(=O)N1CCC2(CCN(C3CCC4(CC3)C(=O)N(C(=O)OCC)c3ccccc34)CC2)C1 (single isomer, unassigned) [12-2 isomer 1] | 48
